species on record: Homo sapiens; experiment: Selectivity ratio of Ke for human mu opioid receptor to Ke for human kappa opioid receptor
Short version: Ratio Ke at least 50 is YES, less is NO.

[
  {
    "SMILES TEXT": "CC(C)[C@@H](CN1CCN(c2cccc(O)c2)[C@@H](C)C1)NC(=O)c1ccc(Oc2ccccc2)cc1",
    "QUALITATIVE LABEL": "YES"
  },
  {
    "SMILES TEXT": "Cc1cccc(Oc2ccc(C(=O)N[C@H](CN3CCN(c4cccc(O)c4)[C@@H](C)C3)C(C)C)c(O)c2)c1",
    "QUALITATIVE LABEL": "YES"
  },
  {
    "SMILES TEXT": "CC(C)[C@@H](CN1CCN(c2cccc(O)c2)[C@@H](C)C1)NC(=O)c1ccc(Oc2ccc(O)cc2)cc1",
    "QUALITATIVE LABEL": "NO"
  },
  {
    "SMILES TEXT": "Cc1cccc(Oc2ccc(C(=O)N[C@H](CN3CCN(c4cccc(O)c4)[C@@H](C)C3)C(C)C)cc2)c1",
    "QUALITATIVE LABEL": "YES"
  },
  {
    "SMILES TEXT": "COc1cccc(Oc2ccc(C(=O)N[C@H](CN3CCN(c4cccc(O)c4)[C@@H](C)C3)C(C)C)cc2)c1",
    "QUALITATIVE LABEL": "YES"
  },
  {
    "SMILES TEXT": "Cc1ccc(O)c(Oc2ccc(C(=O)N[C@H](CN3CCN(c4cccc(O)c4)[C@@H](C)C3)C(C)C)cc2Cl)c1",
    "QUALITATIVE LABEL": "NO"
  },
  {
    "SMILES TEXT": "COc1ccc(Oc2ccc(C(=O)N[C@H](CN3CCN(c4cccc(O)c4)[C@@H](C)C3)C(C)C)cc2)cc1",
    "QUALITATIVE LABEL": "NO"
  },
  {
    "SMILES TEXT": "CC(C)[C@@H](CN1CCN(c2cccc(O)c2)[C@@H](C)C1)NC(=O)c1ccc(Oc2cccc(O)c2)cc1",
    "QUALITATIVE LABEL": "NO"
  }
]
